Study the reported pKi values for 5-hydroxytryptamine receptor 7 (Homo sapiens, UniProt P34969) given below; they originate from different publications.
pKi: −log10 of the molar value.

| molecule | op | pKi |
| --- | --- | --- |
| CN(C)[C@@H]1CCc2c(cccc2-c2cc(C(F)(F)F)cc(C(F)(F)F)c2)C1 | < | 5.00 |
| Cc1sc2ncn(CCCCCN3CCN(c4cccc(Cl)c4)CC3)c(=O)c2c1C | = | 7.05 |
| CC(C)(CCCN1CCCC(C(F)(F)F)C1)S(=O)(=O)c1ccccc1 (racemic) | = | 7.27 |
| O=C1c2ccccc2S(=O)(=O)N1CCCCCCN1CCN(c2ccccc2C(F)(F)F)CC1 | = | 6.71 |
| C[C@H](Nc1nc(F)nc(NCCOc2ccccc2)n1)c1ccccc1 | = | 8.00 |
| COc1ccc2[nH]cc(C3CC(=O)N(CCCCN4CCC(c5c[nH]c6ccc(F)cc56)CC4)C3=O)c2c1 (configuration not stated) | = | 6.19 |
| C[C@H](Nc1cc(NCCc2ccc(F)cc2)ccn1)c1ccccc1 | = | 8.40 |
| O=C(CCNC1CCN(c2ccc([N+](=O)[O-])cc2)CC1)c1csc2ccc(F)cc12 | = | 5.32 |
| Cc1ccc(C(CCNC(C)c2ccc(Cl)cc2)c2ccco2)cc1 (configuration not stated) | = | 5.08 |
| C[C@H](Nc1cc(NCCc2ccc(F)cc2)ncn1)c1ccccc1 | = | 8.30 |
| CC(C)c1ccccc1OCCN1CCC(CNC(=O)c2cccs2)CC1 | = | 6.39 |
| Fc1ccc2[nH]cc(CCCN3CCN(c4nsc5ccccc45)CC3)c2c1 | = | 8.66 |
| C[C@H](Nc1cccc(NCCc2ccccc2)c1)c1ccccc1 | < | 6.00 |
| CCC(Oc1cccc(Cl)c1Cl)c1nc(Nc2ccccc2)nc(N2CCN(C)CC2)n1 (configuration not stated) | = | 5.57 |
| COc1ccccc1N1CCN(CC(O)CN2C(=O)NC(C)(C)C2=O)CC1 (configuration not stated) | = | 6.90 |
| COc1cc2ncnc(N3CCC(CN4CCN(c5cccc(C(F)(F)F)c5)CC4)C3)c2cc1OC (configuration not stated) | = | 6.64 |
| CN(C)C[C@@H]1CC2c3ccccc3Oc3ccc(F)cc3[C@H]2O1 (some centres not stated) | = | 7.24 |
| C[C@@H](NC(=O)CCCCCN1CCN(c2ccccc2-c2ccccc2)CC1)c1ccccc1 | = | 7.98 |
| O=c1n(CCCCCCN2CCN(c3cccc(Cl)c3)CC2)c2cccc3c2n1CCC3 | = | 7.21 |
| COc1ccccc1N1CCN(Cc2ccccc2-c2ccccc2F)CC1 | = | 6.18 |
| CSc1ccccc1N1CCN(CCCCC(=O)N2CCC[C@H]2C(N)=O)CC1 | = | 6.79 |
| CN(C)CCOc1ccccc1Br | = | 5.57 |
| O=C(CCN1CCN(c2ccc([N+](=O)[O-])cc2)CC1)c1csc2ccccc12 | < | 4.00 |
| CC1(c2ccc(F)cc2)NC(=O)N(CC(O)CN2CCN(c3ccc(F)cc3)CC2)C1=O (configuration not stated) | = | 6.08 |
| Cn1c(=O)c2c(ncn2CCCN2CCN(c3ccccc3)CC2)n(C)c1=O | = | 5.84 |
| Fc1ccc(N2CCN(CCCc3c[nH]c4ccc(F)cc34)CC2)c(-c2cn[nH]c2)c1 | = | 9.05 |
| CC(C)c1ccccc1OCC(O)CN1CCC(NS(=O)(=O)c2cccc(F)c2)CC1 (configuration not stated) | = | 6.67 |
| COc1ccc(-n2c(=O)n(CCCCN3CCN(c4ccccc4OC)CC3)c3ccccc32)cc1 | = | 6.57 |
| C[C@H](Nc1ccnc(NCCOc2ccc(F)cc2)n1)c1ccccc1 | = | 9.52 |
| O=c1[nH]c(CCCCCN2CCN(c3ccccc3)CC2)nc2ccccc12 | = | 6.64 |
| CCCCC(Oc1cc(Cl)cc(Cl)c1)c1nc(N)nc(N2CCN(C)CC2)n1 (racemic) | = | 4.96 |
| CSc1ccccc1N1CCN(CCCCCC(=O)N2CCC[C@H]2C(N)=O)CC1 | = | 6.82 |
| O=S1(=O)N(CCCCCCN2CCN(c3cccc(Cl)c3)CC2)c2cccc3c2N1CCC3 | = | 6.79 |
| O=C(c1ccc(F)cc1)C1CCN(CCc2ccc(F)cc2)CC1 | = | 7.20 |
| COc1ccccc1N1CCN(CCCCC(=O)NCc2ccccc2-c2cccc(F)c2)CC1 | = | 7.46 |
| COc1ccc(NC(=O)N2CCN(c3ccc(F)cc3)CC2)cc1N1CCN(C)CC1 | < | 5.00 |
| O=C1c2ccccc2S(=O)(=O)N1CCCCCN1CCN(c2ccccc2)CC1 | = | 6.83 |
